Reference source for all entries: patent EP0209274A2

Each item that follows carries a reported IC50.
# assayed target: 5-Lipoxygenase (Cavia porcellus)
# Construct: The PMNL suspension was disrupted by five ½-second pulse sonication; from tissue; host or cells: guinea pig peritoneal polymorphonuclear leukocytes (30,000 x g supernatant of the sonicate)
# Sequence (A0A286X958 1-674): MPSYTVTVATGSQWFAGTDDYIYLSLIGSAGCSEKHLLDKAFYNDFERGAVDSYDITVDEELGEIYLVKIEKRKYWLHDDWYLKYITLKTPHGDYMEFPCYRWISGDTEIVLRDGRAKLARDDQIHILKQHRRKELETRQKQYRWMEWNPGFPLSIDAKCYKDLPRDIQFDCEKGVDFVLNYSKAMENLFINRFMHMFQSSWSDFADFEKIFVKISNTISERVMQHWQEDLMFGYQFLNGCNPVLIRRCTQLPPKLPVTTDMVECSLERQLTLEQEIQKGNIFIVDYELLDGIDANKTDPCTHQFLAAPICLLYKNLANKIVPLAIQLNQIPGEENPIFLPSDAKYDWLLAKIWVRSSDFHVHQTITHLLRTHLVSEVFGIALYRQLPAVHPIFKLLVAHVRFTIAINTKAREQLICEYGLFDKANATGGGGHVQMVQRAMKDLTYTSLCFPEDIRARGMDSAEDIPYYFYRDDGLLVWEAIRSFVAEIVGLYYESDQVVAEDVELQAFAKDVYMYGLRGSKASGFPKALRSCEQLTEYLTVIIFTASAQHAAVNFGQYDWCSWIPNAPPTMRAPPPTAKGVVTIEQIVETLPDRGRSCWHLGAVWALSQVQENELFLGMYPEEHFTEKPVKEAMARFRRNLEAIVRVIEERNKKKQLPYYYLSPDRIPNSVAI
# method description: 5-Lipoxygenase (5-LPO) Assay
# Assay type: biochemical, guinea pigs
# test conditions: inhibition of 5-HETE formation; supernatant of guinea pig PMNL sonicate; read-out: 5-LPO IC50 (µg/ml) (converted)

Reference set (2 entries):
[
  {
    "molecule": "CCCCC/C=C\\C/C=C\\C/C=C\\CCCC1=CC(=O)OC1O (stereo not drawn) [Example 5]",
    "assayed target": "5-Lipoxygenase (Cavia porcellus)",
    "measured result": "1.57 to 4.71 µM"
  },
  {
    "molecule": "CC/C=C\\C/C=C\\C/C=C\\C/C=C\\C/C=C\\C/C=C\\CC1=CC(=O)OC1O (stereo not drawn) [Example 9]",
    "assayed target": "5-Lipoxygenase (Cavia porcellus)",
    "measured result": "2.17 to 16.3 µM"
  }
]

Next item in the queue.
Inquiry: Tell me measured IC50 for CCCCCCCC/C=C/CCCCCCC1=CC(=O)OC1O (stereo not drawn) [Example 4] please.
Reply text: ~3.1 µM
